In this section, each of the compounds is paired with its reported pIC50.
Molecular target: UniProt P05177
Sequence (P05177 whole entry): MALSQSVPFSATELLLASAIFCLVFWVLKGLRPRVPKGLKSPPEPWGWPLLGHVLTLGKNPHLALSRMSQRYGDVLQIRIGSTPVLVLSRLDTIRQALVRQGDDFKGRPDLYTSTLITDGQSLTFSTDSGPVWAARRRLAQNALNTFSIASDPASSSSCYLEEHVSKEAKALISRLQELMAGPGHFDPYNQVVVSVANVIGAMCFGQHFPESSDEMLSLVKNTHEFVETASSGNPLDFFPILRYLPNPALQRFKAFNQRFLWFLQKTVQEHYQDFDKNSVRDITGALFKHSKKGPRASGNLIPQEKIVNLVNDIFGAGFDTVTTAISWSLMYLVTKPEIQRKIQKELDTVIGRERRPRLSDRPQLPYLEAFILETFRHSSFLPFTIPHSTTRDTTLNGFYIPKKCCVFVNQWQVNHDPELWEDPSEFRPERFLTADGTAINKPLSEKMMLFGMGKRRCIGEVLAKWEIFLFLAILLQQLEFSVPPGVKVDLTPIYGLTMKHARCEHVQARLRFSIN
pIC50: −log10 of the molar value.

- STRUCTURE AS SMILES: "Cc1cccc(Cl)c1C(=O)c1cn(-c2ccc(C(=O)O)cc2)c2ccccc12"
  TARGET DESC: "UniProt P05177"
  pIC50: "< 4.30"
- STRUCTURE AS SMILES: "O=C(O)c1ccc(-n2cc(C(=O)c3c(Cl)cccc3C(F)(F)F)c3c(F)cccc32)c(F)c1"
  TARGET DESC: "UniProt P05177"
  pIC50: "< 4.30"
- STRUCTURE AS SMILES: "O=C(O)c1ccc(-n2cc(C(=O)c3c(Cl)cccc3Cl)c3ccccc32)cc1"
  TARGET DESC: "UniProt P05177"
  pIC50: 4.52
- STRUCTURE AS SMILES: "CCS(=O)(=O)c1ccc(CC(=O)Nc2cc(Cl)c(-c3ccccc3OC(F)(F)F)c(Cl)c2)cc1"
  TARGET DESC: "UniProt P05177"
  pIC50: "< 4.30"
- STRUCTURE AS SMILES: "O=C(O)c1ccc(-n2cc(C(=O)c3c(Cl)cccc3C(F)(F)F)c3c(F)cccc32)cc1"
  TARGET DESC: "UniProt P05177"
  pIC50: "< 4.30"
- STRUCTURE AS SMILES: "O=C(O)c1ccc(-n2cc(C(=O)c3c(Cl)cccc3Cl)c3c(F)cccc32)c(F)c1"
  TARGET DESC: "UniProt P05177"
  pIC50: "< 4.30"
- STRUCTURE AS SMILES: "O=C(O)c1ccc(-n2cc(C(=O)c3c(F)cccc3Cl)c3ccccc32)cc1"
  TARGET DESC: "UniProt P05177"
  pIC50: 4.02

###

In this section, each of the molecules is paired with its reported solubility.
Experiment: Solubility of the compound at pH 4
Settings: buffer
RESULT TYPE: solubility

- STRUCTURE AS SMILES: "O=C(O)c1ccc(-n2cc(C(=O)c3c(Cl)cccc3Cl)c3c(F)cccc32)cc1"
  RESULT TYPE: "solubility"
  VALUE OBSERVED: "< 1 µM"
- STRUCTURE AS SMILES: "O=C(O)c1ccc(-n2cc(C(=O)c3c(Cl)cccc3Cl)c3cccnc32)c(F)c1"
  RESULT TYPE: "solubility"
  VALUE OBSERVED: "< 1 µM"
- STRUCTURE AS SMILES: "O=C(O)c1ccc(-n2cc(C(=O)c3c(Cl)cccc3Cl)c3ccccc32)cc1"
  RESULT TYPE: "solubility"
  VALUE OBSERVED: "< 1 µM"
